system name: T1, soluble hetero-EPOR (EPOR-CD131-Fc) (human, UniProt P19235 25-250; P32927 17-443)
T1 construct: extracellular domain; also called soluble EPOR-CD131-Fc; not shown: human Fc (captured by anti-human Fc)
T1 sequence (looked up) 1: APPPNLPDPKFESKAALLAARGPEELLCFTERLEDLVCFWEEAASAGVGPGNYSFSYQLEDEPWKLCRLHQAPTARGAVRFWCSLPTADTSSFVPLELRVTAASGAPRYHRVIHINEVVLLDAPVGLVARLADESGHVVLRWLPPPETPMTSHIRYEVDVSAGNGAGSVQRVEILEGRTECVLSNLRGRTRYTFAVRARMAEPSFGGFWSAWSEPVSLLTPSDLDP
T1 sequence (looked up) 2: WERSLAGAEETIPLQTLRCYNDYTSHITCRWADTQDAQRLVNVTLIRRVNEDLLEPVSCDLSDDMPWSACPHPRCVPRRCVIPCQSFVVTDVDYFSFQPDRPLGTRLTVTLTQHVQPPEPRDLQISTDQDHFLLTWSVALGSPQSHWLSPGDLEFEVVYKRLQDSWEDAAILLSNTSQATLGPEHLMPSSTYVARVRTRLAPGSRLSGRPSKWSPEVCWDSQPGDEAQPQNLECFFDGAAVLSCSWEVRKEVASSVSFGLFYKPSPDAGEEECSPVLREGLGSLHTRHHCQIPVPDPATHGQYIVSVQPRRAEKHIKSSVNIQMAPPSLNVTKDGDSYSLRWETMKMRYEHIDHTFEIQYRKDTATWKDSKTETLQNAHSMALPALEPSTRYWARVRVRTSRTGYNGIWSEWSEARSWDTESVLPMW
assay text: Octet BLI, EPOR-CD131-Fc on anti-human Fc sensor, 10 nM EPO +/- hybridoma supernatant; competitor EPO
Entries and their % Inhibition values follow.
readout: % Inhibition (%)

# binder, readout number
measured = [
    ("EPORab - M19 (antibody, V domains shown, hybridoma supernatant, ATX-GK mouse; also called hybridoma clone M19) VH: QLQLQESGPGLVKPSETLSLTCTVSGGSISSSNHYWGWIRQPPGKGLEWIGTLYYSGSTYYEPSLKSRVTISVDTSMNQFSLNLSSVTATDTAVYNCARGDRYGPFDYWGQGTLVTVSS VL: DIVMTQSPSSLSASVGDRVTITCRASQGIRDDLGWYQQKPEKAPKRLICAASSLQSGVPSRFSGSGSGTEFTLTISSLQPEDFATYYCLQYNRYPWTFGQGTKVEIK", 10.4),
    ("EPORab - M2 (antibody, V domains shown, hybridoma supernatant, ATX-GK mouse; also called hybridoma clone M2) VH: QVQLVESGGGLVKPGGSLRLSCAASGFTFSDSYMSWIRQAPGKGLEWVSYISNSGSYMYYADSVKGRFTISRDNAKNSLYLQMNNLRAEDTAVYYCARDKLGIGDYWGQGTLVTVSS VL: DIQMTQSPSSLSASVGDRVTITCRASQGIRNDLGWFQQKPGKAPKRLIYAASRLQSGVPSRFSGSGSGTEFTLTISSLQPEDFATYCCLQHHTYPPTFGQGTKVEIK", 93.6),
    ("EPORab - M41 (antibody, V domains shown, hybridoma supernatant, ATX-GK mouse; also called hybridoma clone M41) VH: QVQLVESGGGLVQPGRSLRLSCAASGFTFDDYAIHWVRQAPGKGLEWVSGISYNSENIGYADSVKGRFTISRDNAKNSLYLQMNSLRSEDTALYYCAKDMFLTWFSSFDYWGQGTLVTVSS VL: ETKLTQSPGTLSLSPGERTTLSCRASQSISNNYLAWYQQKPGQAPRLLIYRASTRATGIPDRFSGSGSGTDFTLTIRRLEPEDFAVYYCQRYGRSPLTFGGGTKVEIK", 18.7),
    ("EPORab - M1 (antibody, V domains shown, hybridoma supernatant, ATX-GK mouse; also called hybridoma clone M1) VH: QVQLQESGPGLVKPSQTLSLTCTVSGGSISSGGYYWSWIRQHPGKGLEWIGNIYYSGNPYYNPSLKSRLIISVDTSKNQFSLRLNSVTAADTAVYYCATFYYGSGSYYNEDYWGQGTLVTVSS VL: DIQMTQSPSSLSASVGDRVTITCRASQGIRIDLGWYQQKPGKAPKRLIYAASSLKSGVPSRFSGSGSGTEFTLTISSLQPEDFTTYFCLQHNSYPYTFGQGTKLEIK", 31.2),
    ("EPORab - M52 (antibody, V domains shown, hybridoma supernatant, ATX-GK mouse; also called hybridoma clone M52) VH: QLQLQESGPGLAKPSETLSLTCTVSGVSISSNSYYWGWIRQPPGKGLEWIGNIYHSGRTYYNPSLRSRVTISVDTSKNQFSLKLNSVTAADTAVYYCARGYSYGAFDYWGQGTLVTVSS VL: DIQMTQSPSSLSASVGDRVTITCRASQGIRNDLGWYQQKPGKAPKRLIYAASSLQSGIPSRFSGSGSGTEFTLTISSLQPEDFATYYCLQHNNYPWTFGQGTKVEIK", 7.4),
    ("EPORab - M37 (antibody, V domains shown, hybridoma supernatant, ATX-GK mouse; also called hybridoma clone M37) VH: QVQLQESGPGLVKPSGTLSLTCAVSGGSITTNNWWSWVRQSPGKGLEWIGEIYHSGNTNYNPSLKSRVTMSVDKSKNQFSLNLNSVIVADTAVYYCASALGTYYGAFDTWGQGTMVTVSA VL: DIQMTQSPSSLSASVGDRVTITCRASQSISNYLNWYQQKPGKAPKLLIYAASSLQSGVPSRFSGSGSGTDFTLTISSLQPEDFTTYYCQQSYGTPYTFGQGAKLQIK", -7.1),
    ("EPORab - M54 (antibody, V domains shown, hybridoma supernatant, ATX-GK mouse; also called hybridoma clone M54) VH: QLQLQESGPGLVKPSETLSLTCSVSGGSISSSGYYWGWIRQPPGKGLDWIGTIYYSGNTNYNPSLNSRVTISVDTSRNQFSLKLRSVTAADTAVYYCARGYSYGPFDYWGQGTLVTVSS VL: EIVMTQSPATLSVSPGERATLSCRASQSVSSNLAWYQLKPGQAPRLLIYGASTRATGIPARFSGSGSGTEFTLTISSLQSEDFAVYYCHPYNNWPLTFGGGTKVEIK", 16),
    ("EPORab - M71 (antibody, V domains shown, hybridoma supernatant, ATX-GK mouse; also called hybridoma clone M71) VH: QVQLVESGAEVKKPRASVKVSCKTSGYTFTRHYMHWVRQAPGQGLEWMGIINPNNNSTSYAQKFQGRITMTRDTSTSTVYMELSSLRSEDTAVYYCARFRIVGTTLYFDYWGQGTLVTVSS VL: EIVMTQSPATLSVSPGERATLSCRASQSVSSNLAWYQLKPGQAPRLLIYGASTRATGIPARFSGSGSGTEFTLTISSLQSEDFAVYYCHPYNNWPLTFGGGTKVEIK", 0.1),
    ("EPORab - M24 (antibody, V domains shown, hybridoma supernatant, ATX-GK mouse; also called hybridoma clone M24) VH: EVQLVESGGGLVKPGGSLRLSCAASGFTFTNAWMNWVRQAPGKGLEWIGRIKSKTAGETTDYAAPVKGRFTISRDDSKNTLYLQMNSLKTEDTAVYYCTTDPDYGDPYYYYYFMDVWGKGTTVTVSS VL: DIQMTQSPSSLSASIGDRVTISCRASQSISSYLNWYQQKPGKAPKLLIYGASSLQSGVPSRFSGSGSGTDFTLTISSLQPEDFATYYCQQSYSLPLTFGGGTKVEIK", 9.5),
    ("EPORab - M43 (antibody, V domains shown, hybridoma supernatant, ATX-GK mouse; also called hybridoma clone M43) VH: QVQLQESGPGLVKPSGTLSLTCAVSGGSISSSNWWSWVRQPPGKGLEWIGEIYHSGSINYNPSLKSRVTISVDKSKNQFSLKLTSVTAADTAVYYCASALGNYYGAFDLWGQGTMVTVSS VL: DIVMTQSPSSLSASVGDRVTITCRASQTISSYLNWYQQKPGKAPKLLICAASSLQGGVPSRFSGSGSGTDFTLTISSLQPEDFAPYYCQQSYSTPYTFGQGTKLEIK", -11.4),
]
